# Target Entity: human FLT3 (hFLT3) (human) (UniProt P36888)
# Sequence (P36888 27-543 limits assumed): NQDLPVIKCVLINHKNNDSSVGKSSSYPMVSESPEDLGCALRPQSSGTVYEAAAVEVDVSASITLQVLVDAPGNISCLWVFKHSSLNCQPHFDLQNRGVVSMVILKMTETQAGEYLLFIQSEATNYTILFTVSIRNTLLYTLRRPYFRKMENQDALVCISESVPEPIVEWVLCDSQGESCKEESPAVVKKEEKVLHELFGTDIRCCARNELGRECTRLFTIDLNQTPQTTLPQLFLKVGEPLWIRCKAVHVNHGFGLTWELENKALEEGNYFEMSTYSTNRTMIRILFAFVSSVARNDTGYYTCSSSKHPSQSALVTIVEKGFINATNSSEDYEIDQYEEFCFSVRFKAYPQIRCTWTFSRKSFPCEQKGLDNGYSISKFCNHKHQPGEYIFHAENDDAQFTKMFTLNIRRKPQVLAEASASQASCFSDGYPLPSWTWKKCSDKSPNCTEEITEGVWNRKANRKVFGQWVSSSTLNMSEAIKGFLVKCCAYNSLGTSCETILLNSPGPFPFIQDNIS
# Procedure Summary: SPR, Table 6, scFv format; set-up and antigen species not described
Property Measured: pKd
In textbook form, pKd equals minus log to base ten of the concentration in mol/L.

Solved cases below.
binder="P7H3 (scFv format) (scFv, part only; not given: linker, domain order, tags, V domains shown, not shown: another chain or arm of the molecule; small tags and cut ends) VH: EVQLLESGGGLVQPGGSLRLSCAASGFTFSSYAMHWVRQAPGKGLEWVSAISGSGGSTYYADSVKGRFTISRDNSKNTLYLQMNSLRAEDTAVYYCARGTRWWWGDAFDHWGQGTLVTVSS VL: QSVLTQPPSVSVAPGKTARITCGGNNIGSKSVHWYQQKPGQAPVLVIYYDSDRPSGIPERFSGSNSGNTATLTISRVEAGDEADYYCQVWDSSTAWVFGGGTKLTVL" readout_number=8.04
binder="P1B4 (scFv format) (scFv, part only; not given: linker, domain order, tags, V domains shown, not shown: another chain or arm of the molecule; small tags and cut ends) VH: QVQLVQSGAEVKKPGSSVKVSCKASGGVFSRYALSWVRQAPGQGLEWMGGIIPMLGFANYAQKFQGRVTITADESTSTAYMELSSLRSEDTAVYYCATLDFGALDYWGQGTLVTVSS VL: EIVLTQSPGTLSLSPGERATLSCRASQSVPNEQLAWYQQKPGQAPRLLIYDASSRATGIPDRFSGSGSGTDFTLTISRLEPEDFAVYYCQQYGSPPLTFGQGTKVEIK" readout_number=7.56
binder="P9F1 (scFv format) (scFv, part only; not given: linker, domain order, tags, V domains shown, not shown: another chain or arm of the molecule; small tags and cut ends) VH: EVQLLESGGGLVQPGGSLRLSCAASGFIFSSFAMSWVRQAPGKGLEWVSDISGSGASTYYADSVKGRFTISRDNSKNTLYLQMNSLRAEDTAVYYCASASGGSGSYWPYMDPWGQGTLVTVSS VL: QSVLTQPPSASGTPGQRVTISCSGSGSNIGSNYVYWYQQLPGTAPKLLIYRNNQRPSGVPDRFSGSKSGTSASLAISGLRSEDEADYYCAAWDGSLSRPVFGTGTKLTVL" readout_number=6.90

Incoming: I have this binder here, P1A5 (scFv format) (scFv, part only; not given: linker, domain order, tags, V domains shown, not shown: another chain or arm of the molecule; small tags and cut ends) VH: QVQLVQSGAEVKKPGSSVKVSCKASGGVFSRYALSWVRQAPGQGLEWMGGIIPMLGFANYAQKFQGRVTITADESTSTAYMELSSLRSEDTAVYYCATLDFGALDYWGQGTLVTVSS VL: EIVLTQSPGTLSLSPGERATLSCRASQAVDSSDLAWYQQKPGQAPRLLIYDAYTRPSGIPDRFSGSGSGTDFTLTISRLEPEDFAVYYCQQYGSSPLTFGGGTKLEIK , and I need its recorded pKd.
Outgoing: 8.96

Incoming: I have this binder here, P5F7 (scFv format) (scFv, from a related filing, part only) scFv: EVQLLESGGGLVQPGGSLRLSCAASGFTFSSYAMNWVRQAPGKGLEWVSSISGGGRSTYYADSVKGRFTISRDNSKNTLYLQMNSLRAEDTAVYYCARDLSPSDVGWGYGFDIWGQGTLVTVSSGGGGSGGGGSGGGGSEIVLTQSPATLSLSPGERATLSCRASQSVSSNLAWYQQKPGQAPRLLIYDTFTRATGIPARFSGSGSGTDFTLTISRLEPEDFAVYYCQQYGSSPPTFGQGTRLEIK , and I need its recorded pKd.
Outgoing: 9.00

Incoming: I have this binder here, P5A3 (scFv format) (scFv, part only; not given: linker, domain order, tags, V domains shown, not shown: another chain or arm of the molecule; small tags and cut ends) VH: QVQLVQSGAEVKKPGSSVKVSCKASGGTFSSYYIGWVRQAPGQGLEWMGGIIPWFGTANYAQKFQGRVTITADKSTNTAYMELSSLRSEDTAVYYCAADHHDSPSGYTSGGFDVWGQGTLVTVSS VL: QSALTQPASVSGSPGQSITISCTGTSSDVGGYNYVSWYQQHPGKAPKLMIYEVSKRPSGVPDRFSGSKSGNTASLTVSGLQAEDEADYYCSSYAGSNTVVFGGGTKLTVL , and I need its recorded pKd.
Outgoing: 6.67

Incoming: I have this binder here, P4C7 (scFv format) (scFv, part only; not given: linker, domain order, tags, V domains shown, not shown: another chain or arm of the molecule; small tags and cut ends) VH: QVQLVQSGAEVKKPGSSVKVSCKASGGTFSSYTISWVRQAPGQGLEWMGGIIPAFGIANYAQKFQGRVTITADKSTSTAYMELSSLRSEDTAVYYCAKGGSYSLDYFDIWGQGTLVTVSS VL: EIVLTQSPGTLSLSPGERATLSCRASQYVSASLLAWYQQKPGQAPRLLIYGASTRATGIPDRFSGSGSGTDFTLTISRLEPEDFAVYYCQQYARSSTFGQGTKVEIK , and I need its recorded pKd.
Outgoing: 7.87
